Assay info: yeast display, Sf9 membrane polyspecificity reagent, FACS + sequencing; frameworks hold sequencing errors
Value kind: polyreactivity (PSR sort gate)

Solved entries (count: 10):
## Input Annotate the sequence "QVQLVESGGGLVQAGGSLRLSCAASGFISPSYDMGWYRQAPGKEWELVAAIRSSDGSTYYADSVKGRFTISRDNAKNTVYLQMNSLKPEDTAVYYCNKGVVLTLYVGMDYWGQGTQVTVSS" with its measured polyreactivity (PSR sort gate).
## Output low polyreactivity

## Input Annotate the sequence "QVQLVESGGGLVQAGGSLLLSCAASVFIYRWYAMGWYRPAPGKERELVAGISASGGSTYYADSVKGRFTISRDNAKNTVYLQMNSLKPEDTAVYYCAAYRRNSRWELDYWGQGTQVTVSS" with its measured polyreactivity (PSR sort gate).
## Output high polyreactivity

## Input Annotate the sequence "QVQLVESGGGLVQAGGSLRLSCAASGSTFYRNAMGWYRQAPGKERELVAAINSTDSTNYADSVKGLFTISRDNAKNTVYLQMNSLKPEDTAVYYCAAVGDNLATAEYDYWGQGTQVTLSS" with its measured polyreactivity (PSR sort gate).
## Output low polyreactivity

## Input Annotate the sequence "QVQLVESGGGLVQAGGSLRISCAASGLTFYVYAMGWYRPAPGKERELVAAISGRGGRTYYADSVKGRFTISRDNAKNTVYLQMNSMKPEDTAVYYCAARYPRYRYVEYGYNYWGQGTQVTLSS" with its measured polyreactivity (PSR sort gate).
## Output high polyreactivity

## Input Annotate the sequence "QVQIVESGGGLVQAGGSLRLSCDASGRIFTAYAMGWYRQAPGKERELVAAISSGDSTYYAYSVKGRFSISRDNAKNTLYLQMNSLNPEDTEVYYCATCVYPDFEYDSWGQGTQVTVSA" with its measured polyreactivity (PSR sort gate).
## Output low polyreactivity

## Input Annotate the sequence "QVQLVESGGGLVQAGGSLRLSCAASGSIFGRYAKRWYRQAPGKERELVAAISWNGGSTYYADSVKGRFTISRDNAKKTVDLQMNSLKPEDPAVYYCAVLSWWTKLSRRFYYWGQGTQVTVSS" with its measured polyreactivity (PSR sort gate).
## Output high polyreactivity

## Input Annotate the sequence "QVHLVESGGGLVQAGGSLRLSCAASGITFDEYTMGWYRQAPGKERELVAAIDSDGSTTYADSVKGRFTISRDNAKNTVYLQMNSLKPEDSAVYYCNAEHGDFSWHYLLYDYDYWGPGTQVTVSS" with its measured polyreactivity (PSR sort gate).
## Output low polyreactivity

## Input Annotate the sequence "QVQLVESGAGLVMAGGSLRLSCAASGRTISIYAMGWYRQAPGKERQLVAAISQSSSITYYADSVKGRFTLSRDNANNTVYLQMISLKPEDTACYYCNAVVLRYQGSWLEYWGQGTQVTVSS" with its measured polyreactivity (PSR sort gate).
## Output low polyreactivity

## Input Annotate the sequence "QVQLVESGGGLVQAGGSLRLSCAASGRIFYWYVMGWYIQAPGKERELVATIRYSGGNTYYADSVKGRFTISRDNAKNTVYLQMNSLKPEDTAVYYCAAGSLYWGRSPTRGGQGGYWGQGTQVTVSS" with its measured polyreactivity (PSR sort gate).
## Output high polyreactivity

## Input Annotate the sequence "QVQLVESGGGLVQAGGSLRLSCAASGLIFKSYAMGWSRQAPGKERELVAVISSSGGSTYYADSVKGRFTISRDNAKNTVYLQMNSLKPEDTAVYYCAARSTYRTGDYWGQGTQVTVSS" with its measured polyreactivity (PSR sort gate).
## Output high polyreactivity

Others:
## Input Annotate the sequence "QVQLLESGGGLVQAGGSLRLSCAASGSTFSYNAMGWYIQAPGKERELVAAIDRSVSTNYADSVKGRFTISRDNAKNTVYLQMNSLKPEDTEVYYCNARHPTDDIVIYDYWGQGTQVTVSS" with its measured polyreactivity (PSR sort gate).
## Output low polyreactivity

## Input Annotate the sequence "QVQLVESGGGLVQAGGSLRLSCAASGLTFSVYAMGWYRQAPGKERELVAAITRNGGSTYYADSVKGRFTISRDNAKNTVYLQMNSLKTEDTAVYYCAADASSKLYDYWGQGTQVSVSS" with its measured polyreactivity (PSR sort gate).
## Output low polyreactivity

## Input Annotate the sequence "QVQLVESGGGLVQAGGSLRLSCAASGRIFYPYAMGWSRQAPGKERELVAAISSSAGITYYADSVKGRFTISRDNAKKTVYLQMNSLKPEDTAVYYCAKYPVRNPYGYRYDYWGQGTQVTVSS" with its measured polyreactivity (PSR sort gate).
## Output high polyreactivity

## Input Annotate the sequence "QVQLVESGGGLVQAGGSLRLSCAASGNIFDYYAMGWYRQAPGKERELVAAISTGTSTYADSVKGRFTISRDNAKNTVYLQMNSVKPEDTAVYYCASDVGIRPLNYHPYNYWGQGTQVTVSS" with its measured polyreactivity (PSR sort gate).
## Output low polyreactivity

## Input Annotate the sequence "QVQLVESGGGLVQAGGSLRLSCAASGYIFERYAMGWYRPAPGKERELVAAISSGGGRTYYADSVKGRFTISRDNAKNPVYLQMNSLQPEDTAVYYCAADHWWISSYWGQGTQVTVSS" with its measured polyreactivity (PSR sort gate).
## Output high polyreactivity

## Input Annotate the sequence "QVQLVESGGGLVQAGGSLRLSCAASGSIFGQYAMGWYRQAPGKERELVASISASAASTYYADSVKGRFTISRDNAMNTVYLQLNSLKPEDTAVYYCNATTRWIGYVTIDFDYWGQGTQVNVSS" with its measured polyreactivity (PSR sort gate).
## Output low polyreactivity

## Input Annotate the sequence "QVQLVESGGGLVQAGGSLRLSCSASGSIFAWYGRGWYRQSPGKESELVAAITSTGSTYYADSVKGRFTISRDNAKNTVYLQMTSLKPEDTAVYYCNAYYVYLWRPGVYWGQGTQVTVSS" with its measured polyreactivity (PSR sort gate).
## Output low polyreactivity

## Input Annotate the sequence "QVQLVESGGGLVQAGGSLRLSCSASGIIFVRNAMGWYRQAPGKERELVAAITWRGSTYYADSVKGRFTISRDNAKNTVYLQMNSLKPEDTAVYYCAAVKPHYTSFRDYYWGQGTQVTVSS" with its measured polyreactivity (PSR sort gate).
## Output high polyreactivity

## Input Annotate the sequence "QVQLVESGGGLVQAGGSLRLSCAASGFIFSYYAMGWYRQAPGKERELVADITSGGSTNYADSVKGRFTISRDNAKNTVYLQMNSLKPEDTAVYYCAATGLPGYYAYDYWGQGTQVTVTS" with its measured polyreactivity (PSR sort gate).
## Output low polyreactivity

## Input Annotate the sequence "QGQHVESGGGLVQARGSRRLSCAPSGRTFGYDAMGWYRQAPGKERELVAAINYSGVSTYYADSVKGGFTISRDTAKNTVYLQRNSLKPEDTAGSYCAAKGRYSVYSRNSWGQGTQVTVSS" with its measured polyreactivity (PSR sort gate).
## Output high polyreactivity

## Input Annotate the sequence "QVQLVESGGGLVQAGGSLRLSCAASGSILLRYAMGWYRQAPGKEWELVAAIRTIGASTYYADSVKGRFTISRYNAMITVYLQMNSLKPDDTAVYYCNAESASYWYRPGYDYWGQGNQVTVSS" with its measured polyreactivity (PSR sort gate).
## Output low polyreactivity
